B1: PCDHGA10 (parent)
chain: FGIEIEVTDINDNAPKFQAENLDV

# Variants of: B1
# assay remarks: protein stability index of a GFP-peptide fusion (GPS, HEK-293T) (PSI 1-6); higher = more stable;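 note: lentivirally expressed fusions sorted by FACS into six bins by GFP to DsRed ratio, PSI derived from sequencing read proportions per bin multiplied by bin number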
# conditions used: c terminus: a fixed tail appended
Attribute: protein stability index
A bare number is all that is needed in reply.

Examples with answers:
1) L22K = 4.02
2) D12H = 2.16
3) I3L = 4.08

// query Note down protein stability index recorded for L22F
// result 2.66

// query Note down protein stability index recorded for E4Y
// result 1.73

// query Note down protein stability index recorded for A14N
// result 3.35
